system: Enterobacter cloacae; assay: MIC against Gram-negative bacteria: Enterobacter cloacae; assay type: cell-based; conditions: E. cloacae; 10 h cultivation at 37° C.; 5×10^5 CFU/mL
recorded_endpoint: MIC (μg/mL) E. cloacae (µg/mL)
Unit µg/mL implied. Number only.

Look over these answered cases.
substance: PRT830 (CALGNGGCQHHCVQLTITRHRCQCRPGFQLQEDGRHC; listed as Homo sapiens)
MIC (μg/mL) E. cloacae (µg/mL): 25

substance: PRT844 (CRCNRHSECAGVGARDHCLLCRNHTKGSHCEQCLPLFVGSAVGGGTCRP; listed as Homo sapiens)
MIC (μg/mL) E. cloacae (µg/mL): 50

substance: PRT832 (DVDECAAGLAQCAHGCLNTQGSFKCVCHAGYELGADGRQCY; listed as Homo sapiens)
MIC (μg/mL) E. cloacae (µg/mL): 25

Next substance, please.
Req: # get_value(readout='MIC (μg/mL) E. cloacae', item= PRT155 (APGPCAAQPCRNGGVCTSRPEPDPQHPAPAGEPGYSCTCPAGISGANCQ; listed as Homo sapiens) )
Resp: 12.5
